Measured growth inhibition values are reported for all entries that follow.
method_summary: NCI Yeast Anticancer Drug Screen. Data for the sgs1 mgt1 strain (AID 161);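 further: 0% = growth of cultures given vehicle only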
test_conditions: S. cerevisiae sgs1 mgt1 strain, at 50.0 µM, stronger effect = higher value
This is part of a sample that, as a whole, favours compounds with a hit. Of some 79,000 tested, about 15% had one in any assay.
Number only, in %; omit the unit.

These recorded examples may help you get a feel for the data.
>  <compound>
COc1cc2c3c(c1OC)-c1[nH]c4ccccc4c1C1CCCN(CC2)C31 (centres undefined)

>  <units>
%

>  <growth inhibition>
-20.4

$$$$
>  <compound>
Cc1ccccc1OCC(O)CO (centres undefined)

>  <units>
%

>  <growth inhibition>
-8.7

$$$$

Query :: Using known records, supply growth inhibition for CCC(C)NC(=O)c1ccc(Cl)cc1Cl (centres undefined)
Result :: -12.7

Query :: Using known records, supply growth inhibition for "N#CCCc1nc(N)nc(N)n1"
Result :: -26.9

Query :: Using known records, supply growth inhibition for N=C1N=Nc2nc(C(C(=O)c3cccs3)c3nc4n(c3O)C(=N)N=N4)c(O)n21 (centres undefined)
Result :: -1.25

Query :: Using known records, supply growth inhibition for "O=c1[nH]cnc2c(COCCO)c[nH]c12"
Result :: -19.5

Query :: Using known records, supply growth inhibition for "Cc1ccc(S(=O)(=O)CCS(C)(=O)=O)cc1"
Result :: 13.2

Query :: Using known records, supply growth inhibition for C=C(C(=O)O)C1CC[C@@]2(C)CCC[C@@](C)(O)C2C1 (some centres undefined)
Result :: -7.75

Query :: Using known records, supply growth inhibition for OC1CC2c3ccccc3C1c1cccc[n+]12 (centres undefined)
Result :: -4.1

The origin of these recorded values is PubChem BioAssay (NCI).
